Tested on: HepG2
Assay: Cytotoxicity against human HepG2 cells after 72 hrs by MTT assay
Type: functional, cell-based
Conditions: HepG2, 72 h
pIC50: −log10 of the molar value.
OBSERVATION_TYPE: pIC50

Input line: What does the data say about its pIC50? Entry: CCCCCCCCCCO[C@H]1O[C@H](CO)[C@H](O)[C@H](O)[C@H]1O
Output line: < 3.62

Input line: Next compound: CCCCCCCCCCCCO[C@@H]1O[C@H](CO)[C@H](O)[C@H](O)[C@H]1O
Output line: 3.79

Input line: Next compound: CCCCCCCCCCCCCCCCOC1O[C@H](CO)[C@H](O)[C@H](O)[C@H]1O (mixture of isomers)
Output line: < 3.62

Input line: Next compound: CCCCCCCCCCCCCCCO[C@H]1O[C@H](CO)[C@H](O)[C@H](O)[C@H]1O
Output line: < 3.62
